tested on: DBA/2 mice; test: anticonvulsant protection (DBA2 mouse model of anticonvulsant efficacy, sound-induced seizures); format: in vivo; set-up: concentration or dose not given beside the values; conditions: Table 1; 2 hr
In this section, each of the compounds is paired with its reported Anticonvulsant % Protect 2 hr.
Hi! Could you send only the number? It should be in %, unit omitted.

Problem: Field request: Anticonvulsant % Protect 2 hr | item: CCC(CC)C(CN)CC(=O)O (centres unmarked)
Result: 20

* * *

tested on: DBA/2 mice; test: anticonvulsant protection (DBA2 mouse model of anticonvulsant efficacy, sound-induced seizures); format: in vivo; set-up: concentration or dose not given beside the values; details: Table 1; 2 hr
Property: Anticonvulsant % Protect 2 hr (%)
Hi! Could you send only the number? It should be in %, unit omitted.

Guide cases for Anticonvulsant % Protect 2 hr, answers given:
# Compound, Anticonvulsant % Protect 2 hr, %
data = [
    ("CCC(C)CC(CN)CC(=O)O (stereo not shown)", 100),
    ("CC(C)CC(CN)CC(=O)O (stereo not shown) [reference compound]", 100),
    ("CC[C@@H](C)[C@H](CN)CC(=O)O", 0),
]

With those in mind, consider the next compound.
Problem: Write down the reported Anticonvulsant % Protect 2 hr of CC(C)[C@@H](C)C(CN)CC(=O)O (stereo partly shown) , test system: DBA/2 mice.
Result: 100
